What follows is a collection of pKi values obtained with Sodium-dependent dopamine transporter (Homo sapiens).
Sequence (Q01959 whole entry): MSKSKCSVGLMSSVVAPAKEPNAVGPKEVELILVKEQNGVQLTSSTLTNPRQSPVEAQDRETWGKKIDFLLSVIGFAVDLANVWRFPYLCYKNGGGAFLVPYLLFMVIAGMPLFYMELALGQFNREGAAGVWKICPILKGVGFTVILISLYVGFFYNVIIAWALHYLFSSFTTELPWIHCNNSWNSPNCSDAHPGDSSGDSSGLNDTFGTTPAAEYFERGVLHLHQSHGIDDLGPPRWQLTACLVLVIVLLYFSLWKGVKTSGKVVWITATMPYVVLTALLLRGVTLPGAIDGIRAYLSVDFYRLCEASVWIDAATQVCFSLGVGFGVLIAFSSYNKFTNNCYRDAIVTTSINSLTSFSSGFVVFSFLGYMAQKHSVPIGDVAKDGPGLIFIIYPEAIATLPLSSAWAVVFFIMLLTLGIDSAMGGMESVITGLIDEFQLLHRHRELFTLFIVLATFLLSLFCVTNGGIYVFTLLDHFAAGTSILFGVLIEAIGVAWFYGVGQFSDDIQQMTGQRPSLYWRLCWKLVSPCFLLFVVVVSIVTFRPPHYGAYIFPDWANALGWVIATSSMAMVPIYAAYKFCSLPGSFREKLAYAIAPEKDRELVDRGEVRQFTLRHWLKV
Answer as the number alone; pKi is minus log10 of concentration in mol/L.

Kindly note: Sodium-dependent dopamine transporter (Homo sapiens), `Cc1ccccc1O[C@@H](c1ccccc1)[C@@H]1CNCCO1` , pKi value reported: 6.49

Kindly note: Sodium-dependent dopamine transporter (Homo sapiens), `Cc1ccccc1S[C@@H](c1ccccc1)[C@@H]1CNCCO1` , pKi value reported: 6.56

----------
Provide the reported Ki of each item.
A number alone suffices; assume nM.

Kindly note: UniProt:P23975, `Cc1ccccc1S[C@@H](c1ccccc1)[C@@H]1CNCCO1` , Ki value reported: 0.3

Kindly note: UniProt:P23975, `Cc1ccccc1O[C@@H](c1ccccc1)[C@@H]1CNCCO1` , Ki value reported: 1.02

Kindly note: UniProt:P23975, `FCCCc1ccccc1O[C@@H](c1ccccc1)[C@@H]1CNCCO1` , Ki value reported: 3.68
